Ref: patent US20210155689A1

Molecular target: T1, human LAG-3 on cells (HEK293-hLAG-3 stable cell line) (human, UniProt P18627 23-525)
T1 sequence: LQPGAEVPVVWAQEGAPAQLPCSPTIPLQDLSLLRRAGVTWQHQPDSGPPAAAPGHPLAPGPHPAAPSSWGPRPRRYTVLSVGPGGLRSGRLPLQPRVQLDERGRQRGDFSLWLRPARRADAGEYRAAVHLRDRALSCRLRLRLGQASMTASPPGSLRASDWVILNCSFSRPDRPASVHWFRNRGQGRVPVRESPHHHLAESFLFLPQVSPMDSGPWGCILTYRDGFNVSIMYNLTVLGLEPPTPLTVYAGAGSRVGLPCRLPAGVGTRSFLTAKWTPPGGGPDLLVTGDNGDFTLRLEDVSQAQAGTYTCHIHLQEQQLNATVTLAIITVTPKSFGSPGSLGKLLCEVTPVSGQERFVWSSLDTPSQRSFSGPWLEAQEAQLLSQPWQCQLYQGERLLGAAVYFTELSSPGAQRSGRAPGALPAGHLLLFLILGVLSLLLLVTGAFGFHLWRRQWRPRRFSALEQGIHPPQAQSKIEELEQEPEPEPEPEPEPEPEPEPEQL
Assay: FACS, HEK293-hLAG-3, antibody 0.013 nM
ENDPOINT NAME: Mean fluorescence intensity
Give bare numbers.

Examples with answers:
BINDER	Mean fluorescence intensity
405B8H3-3 humanized antibody (antibody, V domains shown) VH: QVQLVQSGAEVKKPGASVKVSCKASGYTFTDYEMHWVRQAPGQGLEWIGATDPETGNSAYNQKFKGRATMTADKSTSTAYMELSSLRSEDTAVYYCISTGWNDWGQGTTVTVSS VL: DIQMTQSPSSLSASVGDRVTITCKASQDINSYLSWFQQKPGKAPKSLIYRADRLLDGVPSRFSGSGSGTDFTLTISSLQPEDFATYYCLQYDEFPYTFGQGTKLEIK	11
405B8H3-5 humanized antibody (antibody, V domains shown) VH: QVQLVQSGAEVKKPGASVKVSCKASGYTFTDYEMHWVRQAPGQGLEWMGATDPETGNSAYNQKFKGRVTMTRDTSTSTVYMELSSLRSEDTAVYYCISTGWNDWGQGTTVTVSS VL: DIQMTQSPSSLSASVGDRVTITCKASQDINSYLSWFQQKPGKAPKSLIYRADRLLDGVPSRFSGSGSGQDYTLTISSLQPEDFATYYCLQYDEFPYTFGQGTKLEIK	9

(Q) Suppose we examine the binder 405B8H3-1 humanized antibody (antibody, V domains shown) VH: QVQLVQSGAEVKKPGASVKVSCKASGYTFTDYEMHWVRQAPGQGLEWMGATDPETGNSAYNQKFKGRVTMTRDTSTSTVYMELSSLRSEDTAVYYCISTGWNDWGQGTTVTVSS VL: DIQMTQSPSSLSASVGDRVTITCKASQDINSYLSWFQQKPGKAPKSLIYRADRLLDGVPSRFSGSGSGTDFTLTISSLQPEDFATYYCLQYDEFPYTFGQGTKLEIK ; what Mean fluorescence intensity value has been reported?
(A) 11
